Tested on: CAL120
run description: GRmax, 72 h; higher = less effect
Could you label it Y if measured GRmax, 72 h is 0.2 GR or higher, and N otherwise?

Previously resolved entries follow.
# compound, category label
measured = [
    ("CN(C)C/C=C/C(=O)Nc1ccc(C(=O)Nc2cccc(Nc3cc(-c4c[nH]c5ccccc45)ncn3)c2)cc1 [THZ-P1-2] (max 10 µM)", "N"),
    ("CN1CCN(C(=O)c2ccc3cc(CCNc4ncnc5ccc(C#N)cc45)ccc3c2)CC1 [senexin b] (max 10 µM)", "Y"),
    ("O=C(c1cc(Cc2n[nH]c(=O)c3ccccc23)ccc1F)N1CCN(C(=O)C2CC2)CC1 [Olaparib/AZD2281] (max 10 µM)", "Y"),
]

Q: Does CC[C@@]1(O)C(=O)OCc2c1cc1n(c2=O)Cc2cc3c(CN(C)C)c(O)ccc3nc2-1 [Topotecan] (max 10 µM) have a reported GRmax, 72 h of at least 0.2 GR?
Ans: N

---

Item-by-item account of GRmax, 72 h
System: SUM159
run description: GRmax, 72 h; higher = less effect
Give the quantity in GR, number only.

Completed entries (count: 5):
# compound, measurement
rows = [
    ("Cc1nn(C)c(COc2ccc(N3CCN(S(=O)(=O)N(C)C)CC3)cc2)c1-c1cccc2c(CCCOc3cccc4ccccc34)c(C(=O)O)n(CCN3CCOCC3)c12 (max 10 µM)", 0.83),
    ("COc1cc2nccc(Oc3ccc(NC(=O)C4(C(=O)Nc5ccc(F)cc5)CC4)cc3)c2cc1OC [Cabozantinib] (max 10 µM)", 0.257),
    ("Cc1cc(Nc2ncc(Cl)c(Nc3ccccc3S(=O)(=O)C(C)C)n2)c(OC(C)C)cc1C1CCNCC1 [Ceritinib/LDK378] (max 10 µM)", -0.487),
    ("CNC(=O)c1cccc(-c2ccc3c(N4CCOC[C@@H]4C)nc(N4CCOC[C@@H]4C)nc3n2)c1 [AZD2014] (max 10 µM)", 0.113),
    ("COc1ccc2c(c1)[C@]1(C[C@H]1c1ccc3c(/C=C/c4ccc(CN5C[C@@H](C)O[C@@H](C)C5)cc4)n[nH]c3c1)C(=O)N2", -0.119),
]

Q: Give a short answer stating reported GRmax, 72 h for O=C(CCCCCCC(=O)Nc1ccccc1)NO [Vorinostat] (max 10 µM) .
Ans: 0.181

Q: For the compound CC(C)n1nc(-c2ccc3oc(N)nc3c2)c2c(N)ncnc21 [INK128/MLN0128] (max 3.162 µM) , report GRmax, 72 h.
Ans: 0.214

---

Test system: MCF12A
run description: area over the GR curve, 72 h; higher = more effect;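 note: Dye Drop or Deep Dye Drop imaging of viable cells in 384-well plates (Hoechst nuclei, LIVE/DEAD dye), nine half-log doses, GR normalized to DMSO controls and time-zero plates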
recorded endpoint: area over the GR curve (GR)
Just the number please, in GR, no unit attached.

Worked examples, 3 compounds total:
# compound, area over the GR curve (GR)
measured = [
    ("Cc1nc(Nc2ncc(C(=O)Nc3c(C)cccc3Cl)s2)cc(N2CCN(CCO)CC2)n1 [Dasatinib] (max 10 µM)", 0.42),
    ("Cc1cc(C(C)Nc2ccccc2)c2nc(N3CCOCC3)cc(=O)n2c1 (stereo not given) [TGX221] (max 10 µM)", -0.0153),
    ("CC(C)Nc1cc(-c2c[nH]c(C(=O)N[C@H](CO)c3cccc(Cl)c3)c2)c(Cl)cn1 [BVD523] (max 10 µM)", 0.111),
]

# next compound below
Q: Identify measured area over the GR curve associated with COc1cc2nccc(Oc3ccc(NC(=O)C4(C(=O)Nc5ccc(F)cc5)CC4)cc3)c2cc1OC [Cabozantinib] (max 10 µM)
Ans: -0.0141

---

Test system: MGH312
run description: GRmax, 72 h; higher = less effect
Property: GRmax, 72 h; scope: individual compounds
Expressed in GR, but write only the number.

# compound, measurement target, GRmax, 72 h (GR)
rows = [
    ("CC(=O)O[C@H]1C(=O)[C@@]2(C)[C@H]([C@H](OC(=O)c3ccccc3)[C@]3(O)C[C@H](OC(=O)[C@H](O)[C@@H](NC(=O)c4ccccc4)c4ccccc4)C(C)=C1C3(C)C)[C@]1(OC(C)=O)CO[C@@H]1C[C@@H]2O [Paclitaxel] (max 1 µM)", "MGH312", -0.508),
    ("CN(C)C/C=C/C(=O)Nc1ccc(C(=O)Nc2cccc(Nc3ncc(Cl)c(-c4c[nH]c5ccccc45)n3)c2)cc1 [THZ1] (max 1 µM)", "MGH312", -0.939),
    ("CCOc1cc2ncc(C#N)c(Nc3ccc(OCc4ccccn4)c(Cl)c3)c2cc1NC(=O)/C=C/CN(C)C [Neratinib/HKI272] (max 3.162 µM)", "MGH312", -0.278),
]

Q: Using the record for CNC(=O)c1cccc(-c2ccc3c(N4CCOC[C@@H]4C)nc(N4CCOC[C@@H]4C)nc3n2)c1 [AZD2014] (max 10 µM) , state its measured GRmax, 72 h.
Ans: -0.693

Q: Report measured GRmax, 72 h; entry is Nc1ccc(-c2ccc3ncc4ccc(=O)n(-c5cccc(C(F)(F)F)c5)c4c3c2)cn1 [Torin2] (max 1 µM)
Ans: -0.772

Q: Please give the documented GRmax, 72 h of COc1cccc2c1C(=O)c1c(O)c3c(c(O)c1C2=O)C[C@@](O)(C(=O)CO)C[C@@H]3O[C@H]1C[C@H](N)[C@H](O)[C@H](C)O1 [Doxorubicin] (max 3.162 µM)
Ans: -0.963

Q: Provide measured GRmax, 72 h value, entry: Cc1nn(C)c(COc2ccc(N3CCN(S(=O)(=O)N(C)C)CC3)cc2)c1-c1cccc2c(CCCOc3cccc4ccccc34)c(C(=O)O)n(CCN3CCOCC3)c12 (max 10 µM)
Ans: 0.775

Q: Note down GRmax, 72 h recorded for COc1cc2nccc(Oc3ccc(NC(=O)C4(C(=O)Nc5ccc(F)cc5)CC4)cc3)c2cc1OC [Cabozantinib] (max 10 µM)
Ans: 0.332

Q: Return the recorded GRmax, 72 h value; entry: O=C(CCCCCCC(=O)Nc1ccccc1)NO [Vorinostat] (max 10 µM)
Ans: -0.945

Q: Supply measured GRmax, 72 h of CC(=O)Nc1cccc(-n2c(=O)n(C3CC3)c(=O)c3c(Nc4ccc(I)cc4F)n(C)c(=O)c(C)c32)c1 (max 1 µM) in your reply.
Ans: 1.12

Q: Respond only with GRmax, 72 h recorded for CNCc1ccc(-c2[nH]c3cc(F)cc4c3c2CCNC4=O)cc1 [Rucaparib] (max 10 µM)
Ans: 0.569

Q: Tell us which GRmax, 72 h value is on record for CS(=O)(=O)N1CCN(Cc2cc3nc(-c4cccc5[nH]ncc45)nc(N4CCOCC4)c3s2)CC1 [Pictilisib/GDC0941] (max 10 µM)
Ans: -0.923

Q: # return recorded GRmax, 72 h for entry O=C1NC(=NCc2cccs2)SC1=Cc1ccc2ncccc2c1 [R0-3306] (max 10 µM)
Ans: -0.249

---

System: UACC812
run description: GRmax, 72 h; higher = less effect
Kind request: treat -0.4 GR as inclusive, so GRmax, 72 h at -0.4 GR or higher is Satisfied, anything lower is Not satisfied.

# molecule, measurement target, category label
rows = [
    ("COc1cccc(OCCCN)c1-c1cc(Nc2cnc(C#N)cn2)n[nH]1", "UACC812", "Satisfied"),
]

API: the following record is the query input.
Q: Determine whether measured GRmax, 72 h meets or exceeds -0.4 GR for Cc1cc(C(C)Nc2ccccc2)c2nc(N3CCOCC3)cc(=O)n2c1 (configuration not stated) [TGX221] (max 10 µM)
Ans: Satisfied

---

Test system: MDAMB231
run description: GRmax, 72 h; higher = less effect;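 note: breast cell lines in 384-well plates, nine doses across a 10^4 range, Dye Drop imaging of viable cells vs DMSO and time-zero plates, GR 0 means no net growth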
recorded endpoint: GRmax, 72 h (GR)
Please state the figure in GR; there is no need to write the unit.

# compound, measurement target, unit symbol, GRmax, 72 h
records = [
    ("COc1cc(N2CCN(C)CC2)ccc1Nc1ncc2c(n1)N(C)c1ccccc1C(=O)N2CC(F)(F)F", "MDAMB231", "GR", 0.874),
]

Q: Assign GRmax, 72 h to the following record: CC(=O)c1c(C)c2cnc(Nc3ccc(N4CCNCC4)cn3)nc2n(C2CCCC2)c1=O (max 3.162 µM)
Ans: 0.206

Q: For the compound Cc1nc(NC(=O)N2CCC[C@H]2C(N)=O)sc1-c1ccnc(C(C)(C)C(F)(F)F)c1 [Alpelisib/BYL719] (max 10 µM) , give its reported GRmax, 72 h.
Ans: 0.69

Q: Note GRmax, 72 h for the compound shown: CCOc1cc2ncc(C#N)c(Nc3ccc(OCc4ccccn4)c(Cl)c3)c2cc1NC(=O)/C=C/CN(C)C [Neratinib/HKI272] (max 3.162 µM)
Ans: -0.0957

Q: Provide one value: measured GRmax, 72 h of CN(C)C(=O)c1cc2cnc(Nc3ccc(N4CCNCC4)cn3)nc2n1C1CCCC1 [LEE011/Ribociclib] (max 10 µM)
Ans: 0.204

Q: Assign GRmax, 72 h to the following record: COc1cc2c(Oc3ccc4[nH]c(C)cc4c3F)ncnc2cc1OCCCN1CCCC1 [Cediranib/AZD2171] (max 10 µM)
Ans: -0.362

Q: Give the value of GRmax, 72 h reported for the following: CC(=O)O[C@H]1C(=O)[C@@]2(C)[C@H]([C@H](OC(=O)c3ccccc3)[C@]3(O)C[C@H](OC(=O)[C@H](O)[C@@H](NC(=O)c4ccccc4)c4ccccc4)C(C)=C1C3(C)C)[C@]1(OC(C)=O)CO[C@@H]1C[C@@H]2O [Paclitaxel] (max 1 µM)
Ans: -0.12

Q: For the compound CO[C@H]1C[C@@H]2CC[C@@H](C)[C@@](O)(O2)C(=O)C(=O)N2CCCC[C@H]2C(=O)O[C@H]([C@H](C)C[C@@H]2CC[C@@H](OCCO)[C@H](OC)C2)CC(=O)[C@H](C)/C=C(\C)[C@@H](O)[C@@H](OC)C(=O)[C@H](C)C[C@H](C)/C=C/C=C/C=C/1C [Everolimus] (max 10 µM) , report GRmax, 72 h.
Ans: 0.711

Q: Look up and state reported GRmax, 72 h for CC1(N)CCN(c2cnc(-c3cccc(Cl)c3Cl)c(N)n2)CC1 [SHP099] (max 10 µM)
Ans: 0.943

Q: Tell us which GRmax, 72 h value is on record for O=C1NC(=O)[C@@H](c2cn3c4c(cccc24)CCC3)[C@@H]1c1c[nH]c2ccccc12 [Tivantinib/ARQ197] (max 10 µM)
Ans: -0.0845

Q: // fetch GRmax, 72 h given entry CC(C)Nc1cc(-c2c[nH]c(C(=O)N[C@H](CO)c3cccc(Cl)c3)c2)c(Cl)cn1 [BVD523] (max 10 µM)
Ans: 0.213

Q: Please report GRmax, 72 h for the following compound: CC(C)n1nc(-c2ccc3oc(N)nc3c2)c2c(N)ncnc21 [INK128/MLN0128] (max 3.162 µM)
Ans: 0.101

Q: Output measured GRmax, 72 h for this item: Cc1nc(-c2cn3c(n2)-c2ccc(-c4cnn(C(C)(C)C(N)=O)c4)cc2OCC3)n(C(C)C)n1 [Taselisib/GDC0032] (max 10 µM)
Ans: 0.0709
